# Tested on: HepG2
# Test name: MTT cell viability assay, HepG2 cells
# Format: cell-based, human
# Condition parameters: read-out: IC50 (μM) HepG2; cytotoxicity, MTT; mean ± SD
Observation type: IC50 (µM)
Numbers only; they are read as µM.

Query :: Would you please give the reported IC50 of N.N.[Cl][Pt][Cl] [Cisplatin] with HepG2?
Result :: 8.5
